measurement_description: LAP4-GFP expression modulators in yeast, confirmation, cell-based, cherry picks, flow cytometry, mother/daughter gates (AID 2271)
recorded_conditions: S. cerevisiae LAP4-GFP strain, 3 h, at 10 µM, 100 means same as DMSO control
The source made the active and inactive calls.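 How the source made its calls: active means GFP response above 150% of the DMSO control; inconclusive means fewer than 70 events counted in any yeast strain; inactive means the rest.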
Outcomes: active, inactive

{"molecule": "COc1cccc(C(=O)Nc2ccc(C)cc2)c1", "classification": "inactive"}
{"molecule": "CC(=O)NN1C(=O)/C(=C/c2ccc(Br)o2)SC1=S", "classification": "inactive"}
{"molecule": "Cc1ccc(-c2csc(NC(=O)c3cccs3)n2)cc1", "classification": "inactive"}
{"molecule": "COC(=O)NC1CCC(CC2CCC(NC(=O)OC)CC2)CC1 (stereo unspecified)", "classification": "inactive"}
{"molecule": "O=C(CCc1ccccc1)NNC(=S)NC(=O)c1ccccc1", "classification": "active"}
{"molecule": "CCOc1cc(/C=C2\\C(=N)N3N=C(S(=O)(=O)CC)SC3=NC2=O)ccc1OC(=O)c1ccco1", "classification": "inactive"}
{"molecule": "COc1ccc(N2C(=O)C(Cl)=C(Nc3ccccc3OC)C2=O)cc1", "classification": "inactive"}
{"molecule": "COc1ccc(C(=O)Oc2ccc(/C=N/NC(=O)c3ccccc3OC)cc2[N+](=O)[O-])cc1", "classification": "inactive"}
{"molecule": "O=S(=O)(/N=C(\\Sc1ccc(Cl)cc1)c1ccccc1)c1ccccc1", "classification": "active"}
{"molecule": "Cc1ccc(N2C(=O)C3C4C=CC(CNC(=S)Nc5ccc(Cl)cc5)(O4)C3C2=O)cc1 (stereo unspecified)", "classification": "inactive"}
{"molecule": "O=S(=O)(Nc1ccc(Br)cc1)c1cccc2nonc12", "classification": "inactive"}
